Test: Therapeutic index, ratio of CC50 for human 293T cells to EC50 for HIV1
Assay type: cell-based
Details: read-out: Ratio CC50/EC50
propertyLabel: selectivity ratio
Answers are plain numbers.

Report selectivity ratio for every entry below.
1. CC(C)n1c(=O)c(C(=O)NCc2ccc(F)cc2)c(O)c2ncccc21
2. COc1ccccc1CNC(=O)c1c(O)c2ncc(Cc3ccc(F)cc3)cc2[nH]c1=O
3. CN(C)C(=O)Cn1c(=O)c(C(=O)NCc2ccc(F)cc2)c(O)c2ncc(Cc3ccc(F)cc3)cc21
4. O=C(NCc1ccc(F)cc1)c1c(O)c2ncc(Cc3ccccc3)cc2n(CC2CC2)c1=O
5. O=C(NCc1ccc(F)cc1)c1c(O)c2ncc(Cc3ccc(F)cc3)cc2n(CC(=O)N2CCCCC2)c1=O
6. Nc1ccc(Cn2c(=O)c(C(=O)NCc3ccc(F)cc3)c(O)c3ncc(Cc4ccccc4)cc32)cc1

Ans.
30
1540
1150
465
171
1130

* * *

pIC50 values recorded for Human immunodeficiency virus type 1 integrase (Human immunodeficiency virus 1)
One number for each entry, as −log10 of the molar value.

Report pIC50 for every entry below.
1. Cn1c(=O)c(C(=O)NCc2ccc(F)cc2)c(O)c2ncc(Cc3ccc(F)cc3)cc21
2. O=C(NCc1ccc(F)cc1)c1c(O)c2ncc(Cc3ccccc3)cc2n(CCN2CCCC2=O)c1=O
3. O=C(NCc1ccc(F)cc1)c1c(O)c2ncccc2[nH]c1=O

Ans.
1. 7.77
2. 7.49
3. 7.89

* * *

Experiment: Selectivity index, ratio of CC50 for human MT4 cells to EC50 for HIV13B
Type: toxicity, cell-based
Settings: read-out: Ratio CC50/EC50
Can you tell me selectivity ratio for the items I'm about to list?
Give bare numbers.

Recorded results for 2 compounds are shown here.
Cn1c(=O)c(C(=O)NCc2ccc(F)cc2)c(O)c2ncc(Cc3ccc(F)cc3)cc21	453
O=C(NCc1ccc(F)cc1)c1c(O)c2ncc(Cc3ccc(F)cc3)cc2n(CC(=O)N2CCOCC2)c1=O	347

In the following, a different compound is considered.
Qu. Returns the measured selectivity ratio for the input compound. Input: O=C(NCc1ccc(F)cc1)c1c(O)c2ncc(Cc3ccccc3)cc2[nH]c1=O
Ans. 108

* * *

Assay: Therapeutic index, ratio of CC50 for human 293T cells to EC50 for HIV1
Assay type: cell-based
Settings: read-out: Ratio CC50/EC50
Binary call on selectivity ratio: criterion met from 700 upward, criterion not met beneath that.

Observe how each entry below is paired with its result.
O=C(NCc1ccc(F)cc1)c1c(O)c2ncccc2[nH]c1=O	criterion not met
COc1ccc(CNC(=O)c2c(O)c3ncc(Cc4ccc(F)cc4)cc3[nH]c2=O)cc1	criterion met

Qu. Form field: selectivity ratio at least 700? Entry: O=C(NCc1ccc(F)cc1)c1c(O)c2ncc(Cc3ccccc3)cc2n(CCN2CCCC2=O)c1=O
Ans. criterion met

Qu. Form field: selectivity ratio at least 700? Entry: O=C(NCc1ccc(F)cc1C(F)(F)F)c1c(O)c2ncc(Cc3ccccc3)cc2[nH]c1=O
Ans. criterion not met

Qu. Form field: selectivity ratio at least 700? Entry: O=C(NCc1ccc(F)cc1)c1c(O)c2ncc(Cc3ccc(F)cc3)cc2n(CC(=O)N2CCOCC2)c1=O
Ans. criterion met
